PROTOCOL: clinical
MEASUREMENT_CONDITIONS: human, in vivo, geometric mean (90% CI)
TEST_READOUT: Cmax (ng/mL)
Give your result in ng/mL as a bare value.

The recorded Cmax for entry COC(=O)N[C@H](C(=O)N[C@@H](Cc1ccccc1)[C@@H](O)CN(Cc1ccc(-c2ccccn2)cc1)NC(=O)[C@@H](NC(=O)OC)C(C)(C)C)C(C)(C)C [Atazanavir, atazanavir] equals 4600
